Assignment: determine reported Fold change in RNA expression between the ON state and the OFF state for the given molecules.
system: Renilla luciferase RNA; experiment: Barcoded aptazyme variant library screen: un-cleaved Renilla luciferase RNA by barcode read counts, HEK293-T cells; format: cell-based; details: un-cleaved Renilla luciferase RNA, HEK293-T cells cultured with 1 mM theophylline (ON) over without theophylline (OFF); barcode read counts, triplicate

Example entries begin here.
RA269 (nucleic acid, expressed or natural sequence) DNA: GCGCGTCCTGGATTCGCGGAAACGCGAGAATACCAGCATCGTCTTGATGCCCTTGGAAGTCTTACATCCAGCTGACGAGTCCCAAATAGGACGAAACGCGC
1.0 fold
RA014 (nucleic acid, expressed or natural sequence) DNA: GCGCGTCCTGGATTCGCGGAAACGCGTACATCCAGCTGACGAGTCCCAAATAGGACGAAACGGAATACCAGCATCGTCTTGATGCCCTTGGAAGTCCGCGC
3.1 fold
RA134 (nucleic acid, expressed or natural sequence) DNA: GCGCGTCCTGGATTCGCGGAAACGCGTACATCCAGCTGACGAGTCGGAATACCAGCATCGTCTTGATGCCCTTGGAAGTCCGCCCAAATAGGACGAAACGCGC
1.4 fold

Now consider a different molecule.
[in] What value of Fold change in RNA expression between the ON state and the OFF state has been recorded for this entry: RA188 (nucleic acid, expressed or natural sequence) DNA: GCGCGTCCTGGATTCGCGGAAACGCGTACATCCAGCTGACGAGTCCCAAATAGGACGAAGAGAATACCAGCATCGTCTTGATGCCCTTGGAAGTCTCACGCGC
[out] 1.2 fold

FYI, the data here is from patent US20260167959A1.
